Hey, just so you know, these numbers are from PubChem BioAssay (NCI).

Tested on: U251 CNS
Protocol notes: NCI-60 one-dose screen, 48 h (100 = growth as untreated, 0 = no growth, -100 = all killed)
Run conditions: 10 µM unless noted
This is part of a sample that, as a whole, favours compounds with a hit. Of some 83,000 tested, about 20% had one in any assay.
Would you mind telling me the reported growth of each entry?
Give bare numbers, in %.

Please supply growth for each of the following items, keeping them in order.
1. NC(=NCCCOc1ccc(Cl)cc1)Nc1ccc(Cl)cc1
2. Cc1cc(N2CCN(c3ccnc4cc(Cl)ccc34)CC2)nc(NC2CCCCC2)n1
3. NC(=O)c1cc(Br)ccc1NC(=O)/C=C/c1ccccc1
4. Cn1c(NCCc2ccc(O)c(O)c2)nc2c1c(=O)n(Cc1ccc(Br)cc1)c(=O)n2C
5. CC(C)C[C@@H](NC(=O)[C@@H](Cc1ccccc1)NC(=O)c1cnccn1)B1Oc2ccc(C[C@H](NC(=O)[C@H](Cc3ccc4c(c3)OB([C@@H](CC(C)C)NC(=O)[C@@H](Cc3ccccc3)NC(=O)c3cnccn3)O4)NC(=O)[C@@H](N)CC3CCC4OB([C@@H](CC(C)C)NC(=O)[C@@H](CC5CCCCC5)NC(=O)C5CNCCN5)OC4C3)C(=O)NCCCC[C@@H]3NC(=O)[C@@H](Cc4ccccc4)NC(=O)[C@H](CC(=O)O)NC(=O)CNC(=O)[C@H](CCCNC(=N)N)NC3=O)cc2O1 (stereo partly specified)
6. COc1cc2c(cc1-c1c(C)noc1C)ncc1nc(C3CCCCC3)n([C@H](C)COC(F)F)c12

Result:
1. 41.2
2. 30.7
3. 28.7
4. 82.8
5. -58.4
6. 45.7

* * *

Test system: EKVX NSCLC
Protocol notes: NCI-60 one-dose screen, 48 h
Run conditions: 10 µM unless noted
The panel holds about 83,000 compounds, 20% with a hit somewhere; the sample as a whole holds those more often. Activity calls are given as the source filed them. How the source made its calls: active means growth percent below 10; inactive means the rest.
Respond only with the outcome that fits, drawn from active, inactive

These solved cases illustrate the format of a correct answer.
Molecule	Category
CCOC(=O)c1c(CN2CCN(C)CC2)nc2ccc(Cl)cc2c1-c1ccccc1	inactive
COc1ccc(SC2c3cc(OC)c(OC)cc3Oc3nc(N)c(C#N)c(N)c32)cc1 (stereo not drawn)	active
CCOC(=O)c1cc(C(=O)c2ccc(O)c(O)c2)n2ccc(-c3ccn4c(C(=O)c5ccc(O)c(O)c5)cc(C(=O)OCC)c4c3)cc12	inactive
Cn1cc(C(=O)c2nc(-c3c[nH]c4ccc(F)cc34)no2)c2cc(F)ccc21	inactive
C=CCSSc1ncnc2c1ncn2C1OC(CO)C(O)C1O (stereo not drawn)	inactive

Query: Answer briefly: the call reported for CSc1ccc(SC2c3ccc(C)cc3Oc3nc(N)c(C#N)c(N)c32)cc1 (stereo not drawn) in this assay.
Result: active

Query: Could you check what this test reported for `NC(=O)c1cc(I)ccc1NC(=O)/C=C/c1ccccc1Cl` ?
Result: inactive

Query: Answer briefly: the call reported for `COc1ccc(-c2cc(NC(=O)Nc3ccc4ncsc4c3)no2)cc1` in this assay.
Result: inactive

Query: Which result was noted for this molecule in the test: `Oc1ccccc1-c1nnc(CNc2ccc(Cl)cc2)o1`
Result: inactive

Query: Hello, I am checking results. What call was entered for `Nc1nc2ncc(CCNc3ccc(C(=O)O)cc3)nc2c(=O)[nH]1` ?
Result: inactive

Query: Name the outcome recorded for `COc1cc(-c2nn(-c3ccc(C)cc3)cc2C(=O)O)ccc1O` in the assay.
Result: inactive

Query: # fetch the recorded call for `C=CC(=O)Nc1cccc(-c2nc(SC)nc(NCCc3ccc(OC)c(OC)c3)c2C#N)c1` here
Result: inactive

Query: What is the recorded call for this molecule in the test? OC(COc1cccc2ccccc12)CN1CCN(c2ccccc2Cl)CC1 (stereo not drawn)
Result: inactive

Query: Can you look up the reported call for COc1ccc(C2C(C#N)=C(N)Oc3n[nH]c(-c4cccs4)c32)cc1I (stereo not drawn) for me?
Result: inactive

Query: Answer briefly: the call reported for `Clc1ccc2c(NCCCNc3nc(-n4ccnc4)nc4ccccc34)ccnc2c1` in this assay.
Result: inactive

Query: Given `NC1=C(Cl)C(=O)c2ccc(S(N)(=O)=O)cc2C1=O` , state the outcome it received in this test.
Result: active

Query: Dear all, I need the recorded test outcome for `O=C1c2cc3c(cc2-c2c1c1ccc(F)cc1c(=O)n2CCCNCCO)OCO3` , thank you.
Result: active

Query: I would be grateful if you could indicate the recorded call for `CN1CCN(CCCOc2cccc3nc(Nc4cc(Cl)cc(Cl)c4)ccc23)CC1` .
Result: inactive

Query: Hey, what did the test say about `CCOC(=O)n1cc(-c2nonc2-c2cn(C)c3ncccc23)c2ccccc21` ?
Result: inactive
